- target_or_test_system: SOS1 in K562 cells (Homo sapiens)
- Construct: endogenous in cells; host or cells: K562
- test_details: SOS1 degradation in K562 cells (Western blot)
- Assay type: cell-based
- condition_summary: 1.0 μM
outcome_measure: percent SOS1 degradation at 1 µM (%)

Past entries and their recorded results:
>>> endpoint_result("COc1cc2nc(C)nc(N[C@H](C)c3cc(N)cc(C(F)(F)F)c3)c2cc1O[C@H]1CCN(C(=O)CCCCCCCCCSc2cccc3c2CN(C2CCC(=O)NC2=O)C3=O)C1 (some centres unmarked)")
-20.9
>>> endpoint_result("COc1cc2nc(C)nc(N[C@H](C)c3cc(N)cc(C(F)(F)F)c3)c2cc1O[C@H]1CCN(CCCCCCCCCCCCSc2cccc3c2CN(C2CCC(=O)NC2=O)C3=O)C1 (some centres unmarked)")
86.4

a: COc1cc2nc(C)nc(N[C@H](C)c3cc(N)cc(C(F)(F)F)c3)c2cc1O[C@H]1CCN(C(=O)CCCCCCCCCCSc2cccc3c2CN(C2CCC(=O)NC2=O)C3=O)C1 (some centres unmarked)
b: COc1cc2nc(C)nc(N[C@H](C)c3cc(N)cc(C(F)(F)F)c3)c2cc1O[C@H]1CCN(C(=O)CSc2cccc3c2CN(C2CCC(=O)NC2=O)C3=O)C1 (some centres unmarked)
c: COc1cc2nc(C)nc(N[C@H](C)c3cc(N)cc(C(F)(F)F)c3)c2cc1OC1CCN(C(=O)CCSc2cccc3c2CN(C2CCC(=O)NC2=O)C3=O)CC1 (some centres unmarked)
Q: Rank ascending by percent SOS1 degradation at 1 µM. Write the labels in rank order as requested.
Ans: c, b, a
(c: -3.8%, b: 8.1%, a: 17%)

====

- Tested on: 293T cells (KRAS-WT)
- test_details: 3D growth inhibition, 293T
- Format: cell-based
- condition_summary: Homo sapiens, HEK-293T, 120 h, read-out: IC50 (3D culture), 293T
pIC50: −log10 of the molar value.
outcome_measure: pIC50

Input `COc1cc2nc(C)nc(N[C@H](C)c3cc(N)cc(C(F)(F)F)c3)c2cc1O[C@H]1CCOC1` . Output pIC50: < 5.00

====

- target_or_test_system: SOS1 in K562 cells (Homo sapiens)
- Construct: endogenous in cells; host or cells: K562
- Sequence (Q07889 1-1333): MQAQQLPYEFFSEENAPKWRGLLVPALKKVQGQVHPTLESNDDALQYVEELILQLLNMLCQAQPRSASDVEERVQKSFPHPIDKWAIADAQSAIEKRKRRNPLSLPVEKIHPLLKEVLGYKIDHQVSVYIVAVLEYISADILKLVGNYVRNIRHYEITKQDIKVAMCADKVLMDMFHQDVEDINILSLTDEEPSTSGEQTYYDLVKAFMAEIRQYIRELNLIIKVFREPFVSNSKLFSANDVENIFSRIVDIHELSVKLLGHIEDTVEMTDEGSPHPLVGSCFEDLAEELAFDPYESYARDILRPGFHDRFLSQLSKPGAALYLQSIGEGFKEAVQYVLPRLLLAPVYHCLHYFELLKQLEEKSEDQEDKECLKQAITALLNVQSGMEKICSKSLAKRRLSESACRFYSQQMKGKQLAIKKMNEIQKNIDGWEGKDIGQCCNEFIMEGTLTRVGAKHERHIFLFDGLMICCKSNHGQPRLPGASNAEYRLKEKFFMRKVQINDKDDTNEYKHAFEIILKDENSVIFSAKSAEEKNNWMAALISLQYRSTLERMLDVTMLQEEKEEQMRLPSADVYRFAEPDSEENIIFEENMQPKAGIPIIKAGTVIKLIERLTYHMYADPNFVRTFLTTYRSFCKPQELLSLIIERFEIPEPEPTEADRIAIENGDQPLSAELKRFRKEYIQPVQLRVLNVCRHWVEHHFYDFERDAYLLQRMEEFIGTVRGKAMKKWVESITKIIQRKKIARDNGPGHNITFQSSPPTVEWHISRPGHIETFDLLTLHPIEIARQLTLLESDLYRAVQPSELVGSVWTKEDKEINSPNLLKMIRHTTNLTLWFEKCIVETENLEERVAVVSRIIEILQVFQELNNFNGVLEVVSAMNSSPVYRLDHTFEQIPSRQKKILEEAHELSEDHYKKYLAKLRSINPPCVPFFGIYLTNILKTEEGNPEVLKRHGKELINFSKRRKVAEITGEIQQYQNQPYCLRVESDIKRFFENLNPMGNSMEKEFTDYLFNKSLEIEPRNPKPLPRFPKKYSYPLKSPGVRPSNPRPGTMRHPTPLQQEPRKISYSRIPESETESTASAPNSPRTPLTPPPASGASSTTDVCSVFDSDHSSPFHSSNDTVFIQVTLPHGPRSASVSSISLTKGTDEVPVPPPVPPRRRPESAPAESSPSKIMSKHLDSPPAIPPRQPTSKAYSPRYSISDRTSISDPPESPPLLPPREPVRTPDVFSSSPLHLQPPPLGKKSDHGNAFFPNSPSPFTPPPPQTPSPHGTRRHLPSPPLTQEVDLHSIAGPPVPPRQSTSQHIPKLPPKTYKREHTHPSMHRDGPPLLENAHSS
- test_details: SOS1 degradation in K562 cells (Western blot)
- Assay type: cell-based
- condition_summary: 0.1 μM
outcome_measure: percent SOS1 degradation at 0.1 µM (%)

>>> endpoint_result("COc1cc2nc(C)nc(N[C@H](C)c3cc(N)cc(C(F)(F)F)c3)c2cc1O[C@H]1CCN(C(=O)CCCCCCCSc2cccc3c2CN(C2CCC(=O)NC2=O)C3=O)C1 (stereo partly drawn) [SIAIS561096]")
57.2

1: COc1cc2nc(C)nc(N[C@H](C)c3cc(N)cc(C(F)(F)F)c3)c2cc1O[C@H]1CCN(C(=O)CCCSc2cccc3c2CN(C2CCC(=O)NC2=O)C3=O)C1 (stereo partly drawn) [SIAIS561094]
2: COc1cc2nc(C)nc(N[C@H](C)c3cc(N)cc(C(F)(F)F)c3)c2cc1OC1CCN(C(=O)CCCCCCCCSc2cccc3c2CN(C2CCC(=O)NC2=O)C3=O)CC1 (stereo partly drawn) [SIAIS562080]
3: COc1cc2nc(C)nc(N[C@H](C)c3cc(N)cc(C(F)(F)F)c3)c2cc1O[C@H]1CCN(C(=O)CCSc2cccc3c2CN(C2CCC(=O)NC2=O)C3=O)C1 (stereo partly drawn) [SIAIS561093]
Q: Put the entries in order of percent SOS1 degradation at 0.1 µM, starting with the largest number. Write the labels in rank order as requested.
Ans: 1, 3, 2
(1: 32.9%, 3: 19.9%, 2: -46.9%)
